Assay: protein stability index of a GFP-peptide fusion (GPS, HEK-293T) (PSI 1-6); higher = more stable;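 further: 24-mer peptide tiles fused after GFP, lentivirally expressed, FACS-sorted into six equal bins by GFP/DsRed ratio, decoded by Illumina sequencing, PSI is the read-weighted mean bin number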
Conditions: treatment: DMSO; c terminus: a fixed tail appended
Values of protein stability index greater than or equal to 3 map to Criterion met; values below map to Criterion not met.

Answered examples (2):
seq: ISHRSTVASCMHRQETVDCLKKFN [CAMK2A]
class_name: Criterion met
--
seq: KAPVQNEAPALGGGEYQEPGGNVK [BEX5]
class_name: Criterion met

Please indicate if the recorded protein stability index for PSKVEVTEKTTTVLSESSGPSNTS [C2CD2L] meets or exceeds 3.
Criterion met

Please indicate if the recorded protein stability index for EDVDTSQVLYEWEQGFSQSFTQEQ [CTNNB1] meets or exceeds 3.
Criterion met

Please indicate if the recorded protein stability index for FQILLLSDPSTIEASNFQMDRKTR [PNLIPRP1] meets or exceeds 3.
Criterion not met

Please indicate if the recorded protein stability index for DKENIYILLEYCSRRSMAHILKAR [PLK2] meets or exceeds 3.
Criterion not met

Please indicate if the recorded protein stability index for NAGLVWFFPWREAKPGSTEKGLPL [MFSD9] meets or exceeds 3.
Criterion not met

Please indicate if the recorded protein stability index for SLNELMIVIGILSAYISNYAFANV [SLC2A12] meets or exceeds 3.
Criterion met

Please indicate if the recorded protein stability index for IEELEREAERKIIEENITSAAPSN [SRPK2] meets or exceeds 3.
Criterion met

Please indicate if the recorded protein stability index for MASLGPAAAGEQASGAEAEPGPAG [BTBD1] meets or exceeds 3.
Criterion met

Please indicate if the recorded protein stability index for AMGHSQDRLTTFQENQARTHVLSK [LRRC45] meets or exceeds 3.
Criterion met

Please indicate if the recorded protein stability index for LSVQQPTALALEPDAIRSRSNTLR [PCDHGC5] meets or exceeds 3.
Criterion met
